System: rats
assay-notes: Heart rate and ECG intervals in rats
Assay type: in vivo, male Wistar rats
measurement-conditions: 10 mg/kg i.p., time 0 min
// reported Heart rate for each item listed
Dear colleague, please return just the value in beats/min, with no unit written.

{"compound": "O=C(c1ccccc1)c1ccc(OCCCN2CCN(c3ccncc3)CC2)cc1 [KSK-63]", "Heart rate / beats/min": 393.8}
{"compound": "CC(=O)c1ccc(OCCCCCCCCN2CCN(c3ccncc3)CC2)cc1 [KSK-73]", "Heart rate / beats/min": 370.0}
{"compound": "CCC(=O)c1ccc(OCCCCCCCCN2CCN(c3ccncc3)CC2)cc1 [KSK-74]", "Heart rate / beats/min": 381.8}

// switching to the query compound
// field: Heart rate; key: c1ccc(-c2ccc(OCCCN3CCN(c4ccncc4)CC3)cc2)cc1 [KSK-61] ; value = 373.2
